# Test system: DLD-1
# Assay details: NCI tumour cell line growth inhibition, 48 h
Calls of active or inactive are those of the source. Cut-off read from the data, not from the text of the source: active = GI50 up to about 1.1 µM and inactive = higher.
Outcomes: 1 (yes) for active, 0 (no) for inactive

O=C(O)c1ccc(Nc2nc3nn(Cc4ccccc4)cc3c(=O)s2)cc1; 0 (no)
CC(=O)c1cccc(C)c1C(=O)O; 0 (no)
CC1(C)Cc2c(oc3ncnc(N)c23)CS1; 0 (no)
Cc1cc2oc(-c3ccccc3)c(C)c(=O)c2c2c1OC(C)(C)S2; 0 (no)
O=C(CC/C(CC(=O)c1ccc(Cl)cc1)=N\O)Nc1cccc(Cl)c1; 0 (no)
CC(C)N(C(=O)C12C3C4C1C1C2C3C41C(=O)N(C(C)C)C(C)C)C(C)C (stereo not given); 0 (no)
COc1cc([C@@H]2Oc3cc4oc(-c5ccccc5)cc(=O)c4c(O)c3O[C@H]2OC)ccc1O; 0 (no)
C=C[C@]1(C)CC(O)C2C(=C)C(=O)OC2[C@H]1C(=C)C=O (stereo not given in full); 0 (no)
O=C1OC2C(O)COC2(O)C1(O)Cc1c[nH]c2ccccc12.O=C1OC2C(O)COC2(OCc2c[nH]c3ccccc23)C1O (stereo not given); 0 (no)
CC(=O)OC(C)(C)/C=C/C(=O)[C@](C)(O)[C@H]1[C@H](O)C[C@@]2(C)[C@@H]3CC=C4[C@@H](C=C(O)C(=O)C4(C)C)[C@]3(C)C(=O)C[C@]12C [CUCURBITACIN E]; 1 (yes)
CCc1cccc(C)c1NC(=O)CC1C(=O)Nc2ccccc2S1(=O)=O (stereo not given); 0 (no)
Cc1cc(C)c2c(c1)CN1CN2Cc2cc(C)cc(C)c21; 0 (no)
O=c1c(O)c(-c2ccc(O)c(O)c2)oc2cc(O)ccc12 [FISETIN]; 0 (no)
Cc1nc2ccccc2c(=O)n1/N=C(\N=N\c1ccccc1Cl)c1ccccc1Cl; 0 (no)
CC[C@@H]1OC2(C)CC(S(=O)(=O)c3ccccc3)CC1O2 (stereo not given in full); 0 (no)
